All figures here come from PubChem BioAssay.

# Assay: caspase-8 TRAIL sensitization, hit retest, confirmation, cell-based, NB7+caspase-8, with/without TRAIL, luminescence panel (AID 651596)
# Assay setup: NB7 neuroblastoma + caspase-8, without TRAIL, luminescence viability, without TRAIL, mean of runs, at 10 µM
Collected activity values appear next to each entry.
Give the value in % but do not write % after it.

These recorded examples may help you get a feel for the data.
Entry under review: Cc1ccn2cc(-c3cccc(NC(=O)CCC(=O)O)c3)nc2c1 . Reported activity?
60.1

Item under review: CC(=O)c1ccccc1OCC(O)CN1CCN(CCN2C(=O)c3cccc4cccc(c34)C2=O)CC1 (configuration not stated) . Reported activity?
16.4

Entry under review: Oc1cc(NCc2ccc(F)cc2)cc2cccnc12 . Reported activity?
33.5

Entry under review: CCOc1ncccc1C(=O)OCC(=O)Nc1ccc(-c2nc3ccc(C)cc3s2)cc1 . Reported activity?
67

Find the recorded activity belonging to Cc1ccc(NC(=O)c2ccc(CSc3nnnn3C)cc2)cc1 and report it.
37.7

Continuing:
Field request: activity | item: O=C(Nc1ccc2c(c1)OCCO2)C(=O)c1c[nH]c2ccccc12
90.5

Entry O=C(CCl)Nc1ccccc1Sc1ccccc1 has what activity?
87.8

---

# Assay: inhibition of Brca1/Bard1 split-luciferase complementation, confirmation, counter-screen for Mdm2/MdmX interaction inhibitor project, luminescence, single concentration (AID 504668)
# Assay setup: Brca1/Bard1 bimolecular luciferase complementation counterscreen, at 8 µM, stronger effect = higher value
Listing: inhibition of selected compounds
Supply the numeric figure in %, leaving out any unit text.

Need inhibition of CCCCCc1cc(=O)oc2c(C(CCN(CC)CC)c3cc(OC)c(OC)c(OC)c3)c(OC)cc(OC)c12 (configuration not stated) , thanks.
32

Fill blank: measured inhibition of the compound CCN(CC)c1ccc(/C=N/NC(=O)c2c(Cl)cnn2C)c(O)c1 is ____.
26.9

// inhibition lookup, key: C[C@@H](NC(=O)OC(C)(C)C)c1nnc(S(=O)(=O)Cc2ccccc2)o1
24.9

Looking for the measured inhibition of COc1cc(OC)cc(C(=O)Oc2c(CN3CCOCC3)cc(Cl)c3cccnc23)c1 , can you help?
33.8

Which inhibition is reported for this compound? CCOc1ccc(N(C(=O)/C=C/C(=O)Nc2cc(C)on2)C(C(=O)NC2CCCC2)c2ccccc2C)cc1 (configuration not stated)
27.4

Which value of inhibition has been reported for COc1cccc(/C=N/Nc2ncnc(Cl)c2N)c1O in the records?
30.7

Which value of inhibition has been reported for COC1(OC)C(/C=C/c2ccc(C)cc2)C(C#N)(C#N)C1(OC)OC (configuration not stated) in the records?
35.3

Form field: reported inhibition of CCCCCCCCn1c2c(c(=N)c3ccccc31)CCC2
27.2

// inhibition lookup, key: Cc1cccc(Nc2ncnc3ccc(Br)cc23)c1
25.6

Which measured inhibition value corresponds to CC(C)c1nc(NCCO)c(C#N)c2c1CCCC2 ?
35

Further cases:
Endpoint output: inhibition of CCC(C)Oc1cc(-c2ccnc(Nc3cccc(Cl)c3)n2)ccn1 (configuration not stated) . Value?
25.4

Name the recorded inhibition for Nc1nc(CC(=O)CSc2ccc(Cl)cc2)nc(Nc2ccc(F)cc2)n1 .
29.2

What does the data say about its inhibition? Entry: CCc1ccc(C(O)(CC(C)C)C(CN2CCOCC2)c2ccccc2)cc1 (configuration not stated)
27.2

Look up inhibition for this compound: CCCC(=O)NC(c1ccc(OC)c(OC)c1)c1cc(Cl)c2cccnc2c1O (configuration not stated)
27.9

# inhibition lookup, item Cc1c(Cl)cccc1N/C(SCC(=O)N1CCCCCC1)=C(/C#N)c1nc2ccccc2s1
36

Query (compound): CCN1/C(=C/c2ccc3cccc(C)c3[n+]2CC)Sc2ccccc21 ; field requested: inhibition
26.4

Which inhibition value belongs to N=c1c2c(-c3ccccc3)c(-c3ccccc3)n(Cc3ccco3)c2ncn1Cc1ccccc1 ?
23

Would you kindly share the measured inhibition for Cc1cc(Br)cc(/C=N/NC(=O)c2ccc3c(c2)OCO3)c1O ?
33

Consider the compound shown here: Oc1c(CN2CCN(c3ccccn3)CC2)cc(Cl)c2cccnc12 What is its recorded inhibition?
28

What does the record list as inhibition for CCN(CC)S(=O)(=O)c1ccc2c(c1)C(=NO)c1cc(S(=O)(=O)N(CC)CC)ccc1-2 ?
23.7

I would be grateful if you could share the reported inhibition for COc1ccc(C2Oc3ccccc3C3=C2C(c2cccs2)n2ncnc2N3)cc1 (configuration not stated) .
29.5

What value of measured inhibition is listed for Clc1cncc(Cl)c1N/N=C/c1ccncc1 ?
27.6

---

# Assay: caspase-8 TRAIL sensitization, hit retest, confirmation, cell-based, NB7+caspase-8, with/without TRAIL, luminescence panel (AID 651596)
# Assay setup: NB7 neuroblastoma + caspase-8, without TRAIL, luminescence viability, without TRAIL, mean of runs, at 10 µM
API: label(entry) gives t if the entry's activity is strictly smaller than 60%; on equality or larger values it gives f.

Worked examples follow.
Check if activity falls below 60% for C=C(C)c1cc2c(ccc3ccc(=O)oc32)o1 .
f

For CC(C)(C)c1ccc2c(c1)OC(C(=O)N/N=C\c1ccc[nH]1)CO2 (stereo unspecified) , is the recorded activity below the cut-off of 60%?
t

Confirm or reject: activity of Cc1ccsc1/C=C/c1ccc2ccccc2n1 lies strictly below 60%
t

Is it true that activity reported for CC(C)c1ccc(/C=N/NC(=O)c2ccccn2)cc1 is less than 60%?
f

Does the reported activity of CS(=O)(=O)Nc1cccc(NC(=O)C2Cc3c(-c4cccc(F)c4)ccnc3O2)c1 (stereo unspecified) stay below 60%?
f

Take the compound CC1(Cc2ccc(OC(F)(F)F)cc2)C(=O)Nc2ccc(S(=O)(=O)NC3CCCCC3)cc21 (stereo unspecified) and say whether its activity is less than 60%.
t

Record CC1(C)CC(N2CCN(C(c3ccccc3)c3ccccc3)CC2)=CC(=[N+]2CCCCC2)C1 : is its activity strictly below 60%?
t

Is 60% strictly greater than the compound's reported activity? compound: Cc1ccc(OCC(=O)Nc2ccccc2C(N)=O)cc1
f

Further cases:
Lab note: confirm whether the reported activity for this compound is below 60%, equality not counting. compound: Cn1ncc2c(O/N=C(\N)c3ccc(C(F)(F)F)cc3)ncnc21
f

State whether 60% exceeds activity recorded for CCCc1c(C(=O)N/N=C/C=C/c2ccccc2)nnn1-c1nonc1N .
t

activity under 60%? Item: Cc1cccc(NC(=O)c2cc3ccccc3c(=O)o2)n1
f

---

Each entry below lists one item and its recorded activity value.
# Assay: caspase-8 TRAIL sensitization, hit retest, confirmation, cell-based, NB7+caspase-8, with/without TRAIL, luminescence panel (AID 651596)
# Assay setup: NB7 neuroblastoma + caspase-8, without TRAIL, luminescence viability, without TRAIL, mean of runs, at 10 µM
Unit % implied. Number only.

For the compound COc1cc(SC#N)ccc1N=Cc1c(C)[nH]n(-c2ccc(Cl)cc2)c1=O , what activity is on record?
41.2

Consider the compound shown here: CCCc1cc(=O)[nH]c(SCC(=O)Nc2cc(S(=O)(=O)N3CCCCC3)ccc2C)n1 What is its recorded activity?
-4.17

Could you share which activity value was measured for O=C(Nc1cnn(C23CC4CC(CC(C4)C2)C3)c1)c1cnn2c(C(F)(F)F)cc(-c3ccco3)nc12 ?
70.3

Given Cc1ccc(-c2nc3cc(N)ccc3o2)cc1 , state its recorded activity.
60

Need activity, item Cc1ccccc1-n1nnnc1Sc1nnnn1-c1ccccc1
91.3

For the compound O=C(NCCC1=CCCCC1)c1coc(=O)c(Br)c1 , what activity is on record?
22.7

activity for CCOc1ccc(C(=O)Nc2nnc(NC(=S)Nc3ccccc3)s2)cc1 ?
61.6

Which activity is listed for Nc1c(-c2ccccc2)cnn1-c1ccccc1 ?
40.4

Looking for the measured activity of Cc1nn(-c2ccccc2)c(Cl)c1/C=N/NC(=O)c1[nH]ncc1Br , can you help?
71.9

Recorded activity for C#Cc1ccc(NC(=O)C2(C)CCN2C(=O)Cc2ccc(C(C)C)cc2)cc1 (stereo not drawn) , please?
49.2

New cases:
Which activity is reported for this compound? Cc1ccc2oc(/N=C(\N)NC(=O)C3CC3)nc2c1
71

Please report the recorded activity for O=C(CSc1ncnc2nc[nH]c12)c1ccc(Cl)cc1 .
66

---

# Assay: caspase-8 TRAIL sensitization, hit retest, confirmation, cell-based, NB7+caspase-8, with/without TRAIL, luminescence panel (AID 651596)
# Assay setup: NB7 neuroblastoma + caspase-8, without TRAIL, luminescence viability, without TRAIL, mean of runs, at 10 µM
activity less than 90% is 1.0; activity greater than or equal to 90% is 0.0.

Some solved entries appear below for comparison.
Does the reported activity of O=C(CCl)N=c1sccn1Cc1ccccc1Cl stay below 90%?
0.0

I'd appreciate it if you could check whether COc1ccccc1NC(=O)CSc1ccc(-c2ccc(-n3ccnc3)cc2)nn1 has activity smaller than 90%.
1.0

hey, is activity for CC(C)(C)c1csc(NC(=O)Nc2ccccc2)n1 lower than 90% or not?
1.0

Please state whether activity is below 90% for COc1cccc(C(=O)Nc2ccc(C3CC3(Cl)Cl)cc2)c1 (stereo unspecified)
1.0

Find out if reported activity for O=C(/C=C\Nc1ccccn1)c1ccccc1 is less than 90%
1.0

***
Record CSc1nc(NCCN(C)C)c2sc3nc(-c4ccco4)c4c(c3c2n1)CCC4 : is its activity strictly below 90%?
0.0

Report whether reported activity is lower than 90% (strictly) for O=C(Nc1ccccn1)c1ccc2c(c1)OCCO2
1.0

Dear reviewer, please state whether CCCn1c(C)cc(C(=O)COC(=O)c2ccc[nH]c2=O)c1C has activity strictly beneath 90%.
1.0

Is activity strictly under 90% for the entry C=CCNc1ncnc2c1ncn2C1OC(CO)C(O)C1O (stereo unspecified) ?
1.0
